Origin of measurements: PubChem BioAssay AID1851

# Target Or System: Cytochrome P450 3A4 (Homo sapiens) (UniProt P08684)
# Sequence (P08684 whole entry, looked up): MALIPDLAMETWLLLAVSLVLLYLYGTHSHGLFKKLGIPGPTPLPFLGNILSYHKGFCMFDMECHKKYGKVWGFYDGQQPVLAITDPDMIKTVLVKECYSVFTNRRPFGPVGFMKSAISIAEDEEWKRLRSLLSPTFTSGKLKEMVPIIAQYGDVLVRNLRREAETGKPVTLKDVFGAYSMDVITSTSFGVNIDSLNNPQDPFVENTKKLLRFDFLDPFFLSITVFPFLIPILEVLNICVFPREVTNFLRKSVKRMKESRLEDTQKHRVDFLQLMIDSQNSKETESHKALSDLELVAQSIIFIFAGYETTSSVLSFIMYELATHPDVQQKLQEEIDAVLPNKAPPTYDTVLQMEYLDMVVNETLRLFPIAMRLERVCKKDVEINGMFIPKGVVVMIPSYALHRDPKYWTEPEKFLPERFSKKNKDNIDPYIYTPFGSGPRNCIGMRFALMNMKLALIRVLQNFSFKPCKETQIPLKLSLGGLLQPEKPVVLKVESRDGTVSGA
# Measurement Protocol: Cytochrome panel assay with activity outcomes
# Assay Conditions: recombinant CYP, pro-luciferin dealkylation, luminescence, p450-cyp3a4; series mostly up to 57.1 µM
About 5,100 (32%) of roughly 16,000 compounds were called active. Another 25% or so got no clear call; they are omitted. Calls follow the shape of the dose curve; as a rule, active = well fitted curve in the direction sought with a large enough effect; inconclusive = small, poorly fitted or top-dose-only effect, or effect the other way; inactive = no such curve, though single readings can be large or run the other way. This is one part of the list.
Possible outcomes: active, inactive

[[record]]
compound = "O=C(NCCc1ccccc1)N1c2ccccc2Sc2ccccc21"
label_value = "active"

[[record]]
compound = "N[C@H](C(=O)O)c1nn[nH]n1"
label_value = "inactive"

[[record]]
compound = "CCN(CC)S(=O)(=O)N1CCC(C(=O)NCc2ccc(C)cc2)CC1"
label_value = "active"

[[record]]
compound = "O=c1nc2ccccc2c2n1C[C@H](CN1CCN(c3ccccc3)CC1)N2"
label_value = "inactive"

[[record]]
compound = "CCN(CC)CCOc1ccc(/C(=C(\\Cl)c2ccccc2)c2ccccc2)cc1"
label_value = "inactive"

[[record]]
compound = "CCc1cc(C(c2ccccc2OC)N2CCOCC2)c(NC(=O)c2ccccc2)s1 (centres undefined)"
label_value = "active"

[[record]]
compound = "COc1ccccc1CN1CCC2(CCNCC2)CC1"
label_value = "inactive"

[[record]]
compound = "C[C@@H](CN1c2ccccc2Sc2ccccc21)N(C)C"
label_value = "inactive"

[[record]]
compound = "CC(C(=O)NCc1ccc2c(c1)OCO2)N1c2cccc3cccc(c23)S1(=O)=O (centres undefined)"
label_value = "active"

[[record]]
compound = "OC[C@@H]1O[C@@H](n2cnc3c(NC4CCCC4)ncnc32)[C@@H](O)[C@H]1O"
label_value = "inactive"

[[record]]
compound = "Cc1ccc(C(=O)c2cn[nH]c2-c2cc(Cl)ccc2O)cc1"
label_value = "active"

[[record]]
compound = "Cc1ccc(C)c(N/C(N)=N/c2nc(C)cc(C)n2)c1"
label_value = "inactive"

[[record]]
compound = "O=C(c1ccncc1)N1CCC2(CC1)CCN(c1ncccn1)CC2"
label_value = "inactive"

[[record]]
compound = "CC(C)CNCC(=O)N1c2ccccc2Sc2ccccc21"
label_value = "active"

[[record]]
compound = "O=C(c1cnccn1)N1CCC2(CCCN(C(c3ccccc3)c3ccccc3)C2)CC1"
label_value = "active"

[[record]]
compound = "Cc1ccc(NC(=O)CC2CS(=O)(=O)CC2CC(=O)Nc2ccc(C)c(C)c2)cc1C (centres undefined)"
label_value = "active"

[[record]]
compound = "COc1ncc2nc(-c3cn(C)c4ccccc34)c(=O)n(Cc3ccc(F)cc3)c2n1"
label_value = "active"

[[record]]
compound = "Cn1c(-c2ccc3c(c2)OCO3)cc(=O)c2ccccc21"
label_value = "active"

[[record]]
compound = "CCOc1ccc(NC(=O)N2CCC(c3ccc(C)cc3)C2)cc1 (centres undefined)"
label_value = "inactive"


###

# Target Or System: Cytochrome P450 3A4 (Homo sapiens) (UniProt P08684)
# Measurement Protocol: Cytochrome panel assay with activity outcomes
# Assay Conditions: recombinant CYP, pro-luciferin dealkylation, luminescence, p450-cyp3a4; series mostly up to 57.1 µM
About 5,100 (32%) of roughly 16,000 compounds were called active. Roughly 25% stayed inconclusive and do not appear here. Calls come from the whole dose curve; as a rule, active = well fitted curve in the direction sought with a large enough effect; inconclusive = small, poorly fitted or top-dose-only effect, or effect the other way; inactive = no such curve, though single readings can be large or run the other way. The list shows a part of the results.
Outcomes: active, inactive

[[record]]
compound = "Cc1cccc(N(CC(=O)N2CCOCC2)S(C)(=O)=O)c1"
label_value = "inactive"

[[record]]
compound = "O=C(NC1CCCc2ccccc21)C1CCN(S(=O)(=O)N2CCCCCC2)CC1 (stereo not given)"
label_value = "active"

[[record]]
compound = "CCN(CC)CCOc1ccc(Cc2ccccc2)cc1"
label_value = "inactive"

[[record]]
compound = "COc1cccc(NC(=O)c2cc(-c3cccnc3)nc3c(Cl)cccc23)c1"
label_value = "active"

[[record]]
compound = "CN(Cc1ccco1)c1cc(-c2ccc3c(c2)OCO3)ncn1"
label_value = "active"

